B1: BRF1 (parent)
chain: FVESSGGGSSAVGQFVSLDGAGKT

# Variants of: B1
# Experiment Summary: protein stability index of a GFP-peptide fusion (GPS, HEK-293T) (PSI 1-6); higher = more stable;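 further: lentivirally expressed fusions sorted by FACS into six bins by GFP to DsRed ratio, PSI derived from sequencing read proportions per bin multiplied by bin number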
# Measurement Setup: c terminus: a fixed tail appended
Measured Attribute: protein stability index

* S9W | 2.93
* L18W | 1.58
* V12M | 2.52
* Q14K | 1.72
* S9L | 1.77
* V12R | 2.51
* S5G | 2.19
* A21C | 1.81
* T24C | 2.27
* A21E | 3.23
* S4K | 2.63
* G6C | 1.97
* S10Y | 1.64
